- Tested on: Tau phosphorylation at Ser396 (pSer396) in SH-SY5Y cells
- test-method-notes: Tau phosphorylation at Ser396 (pSer396) cell assay, ELISA/western blot
- Format: cell-based, human
- test-conditions: Homo sapiens, SH-SY5Y, read-out: pSer396 Tau EC50 (μM)
measurement-kind: EC50

What value of EC50 has been recorded for this entry: "O=C(Nc1cc2cc(-c3cccnc3)ccc2cn1)C12CCN(CC1)CC2"
> 10 µM

----------
- Tested on: Tau phosphorylation at Ser396 (pSer396) in SH-SY5Y cells
- test-method-notes: Tau phosphorylation at Ser396 (pSer396) cell assay, ELISA/western blot
- Format: cell-based, human
- test-conditions: control DYRK1A inhibitors; printed '>10 M' (μ apparently lost); read-out: EC50 in the Tau assay
measurement-kind: EC50

Return reported EC50; argument: CCN1/C(=C/C(C)=O)Sc2ccc(O)cc21 [Indy, reference compound]
> 10 µM

Data origin, for the record: patent US10653688B2
